- testedTarget: hPPARα (LBD) (Homo sapiens, UniProt Q07869)
- Construct: The receptor expression plasmid (pSG5-GAL4-hPPARα or γ or δ (LBD)); GAL4 (fusion partner)
- Sequence (Q07869 239-466 limits assumed): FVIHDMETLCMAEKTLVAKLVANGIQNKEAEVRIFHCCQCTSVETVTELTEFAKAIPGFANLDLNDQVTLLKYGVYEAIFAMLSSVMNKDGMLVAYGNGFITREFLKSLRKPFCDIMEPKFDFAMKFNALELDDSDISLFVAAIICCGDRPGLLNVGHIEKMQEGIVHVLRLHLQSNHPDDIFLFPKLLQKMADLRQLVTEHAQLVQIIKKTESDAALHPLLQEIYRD
- protocolNotes: GAL4-hPPARα (LBD) luciferase reporter transactivation in CV-1 cells
- statedConditions: about 40 hours, relative to GW-590735 as 100%, read-out: PPAR activities EC50 PPARα
measure: EC50 (µM)

givenSmiles | testedTarget | EC50 / µM
CCc1cc(COc2ccccc2Cn2c(CN3CCCC3)nc3cc(Br)ccc32)ccc1CCC(=O)O | hPPARα (LBD) (Homo sapiens, UniProt Q07869) | 3.42
CCc1cc(COc2ccccc2Cn2c(CN3CCCC3)nc3cc(Br)ccc32)ccc1OCC(=O)O | hPPARα (LBD) (Homo sapiens, UniProt Q07869) | 3.99

I: CCc1cc(COc2ccccc2Cn2c(CCCN3CCCC3)nc3cc(Br)ccc32)ccc1CCC(=O)O
II: CCc1cc(COc2ccccc2Cn2c(CCc3ccc(Cl)cc3Cl)nc3cc(Br)ccc32)ccc1CCC(=O)O
III: CCc1cc(COc2ccccc2Cn2c(CCCN3CCCC3)nc3cc(Br)ccc32)ccc1OCC(=O)O
Kindly order the items shown according to EC50, from the highest value down. Field: ranking. Enter the labels in the order requested. I, III, II
(I: 3.05 µM, III: 2.11 µM, II: 0.104 µM)

---

- testedTarget: hPPARγ (LBD) (Homo sapiens, UniProt P37231)
- Construct: The receptor expression plasmid (pSG5-GAL4-hPPARα or γ or δ (LBD)); GAL4 (fusion partner)
- Sequence (P37231 238-503 limits assumed): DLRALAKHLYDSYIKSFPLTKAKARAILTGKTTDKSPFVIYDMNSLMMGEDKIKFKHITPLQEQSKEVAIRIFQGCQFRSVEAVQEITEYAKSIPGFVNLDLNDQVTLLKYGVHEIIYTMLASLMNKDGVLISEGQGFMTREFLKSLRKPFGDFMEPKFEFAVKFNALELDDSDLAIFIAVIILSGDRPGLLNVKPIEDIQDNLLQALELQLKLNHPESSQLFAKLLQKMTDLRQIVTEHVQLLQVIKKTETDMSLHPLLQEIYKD
- protocolNotes: GAL4-hPPARγ (LBD) luciferase reporter transactivation in CV-1 cells
- statedConditions: about 40 hours, relative to Rosiglitazone as 100%, read-out: PPAR activities EC50 PPARγ
pEC50: −log10 of the molar value.
measure: pEC50

Answered examples (3):
givenSmiles | measure | measuredNumber
CCc1cc(COc2ccccc2Cn2c(CN3CCCC3)nc3cc(Br)ccc32)ccc1CCC(=O)O | pEC50 | 6.17
CCc1cc(COc2ccccc2Cn2c(CCCN3CCCC3)nc3cc(Br)ccc32)ccc1OCC(=O)O | pEC50 | 5.04
CCc1cc(COc2ccccc2Cn2c(CCc3ccc(Cl)cc3Cl)nc3cc(Br)ccc32)ccc1CCC(=O)O | pEC50 | 6.73

a: CCc1cc(COc2ccccc2Cn2c(CCCN3CCCC3)nc3cc(Br)ccc32)ccc1CCC(=O)O
b: CCc1cc(COc2ccccc2Cn2c(CN3CCCC3)nc3cc(Br)ccc32)ccc1OCC(=O)O
Hey, between a and b which has a smaller measured pEC50? Lab note: record the label of whichever item you select. a
(a: 4.81, b: 5.69)

---

- testedTarget: hPPARδ (LBD) (Homo sapiens, UniProt Q03181)
- Construct: The receptor expression plasmid (pSG5-GAL4-hPPARα or γ or δ (LBD)); GAL4 (fusion partner)
- Sequence (Q03181 211-439 limits assumed): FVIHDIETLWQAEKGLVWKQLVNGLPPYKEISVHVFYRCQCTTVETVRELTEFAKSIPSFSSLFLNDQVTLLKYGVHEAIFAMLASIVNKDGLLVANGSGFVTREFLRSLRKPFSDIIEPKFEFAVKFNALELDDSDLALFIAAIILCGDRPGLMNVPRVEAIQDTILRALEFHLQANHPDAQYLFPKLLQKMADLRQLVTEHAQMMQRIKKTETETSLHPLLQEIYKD
- protocolNotes: GAL4-hPPARδ (LBD) luciferase reporter transactivation in CV-1 cells
- statedConditions: about 40 hours, relative to GW-501516 as 100%, read-out: PPAR activities EC50 PPARδ
measure: EC50 (nM)

Answered examples (3):
givenSmiles | EC50 [nM]
CCc1cc(COc2ccccc2Cn2c(CCc3ccc(Cl)cc3Cl)nc3cc(Br)ccc32)ccc1CCC(=O)O | 36.5
CCc1cc(COc2ccccc2Cn2c(CN3CCCC3)nc3cc(Br)ccc32)ccc1CCC(=O)O | 142
CCc1cc(COc2ccccc2Cn2c(CCCN3CCCC3)nc3cc(Br)ccc32)ccc1CCC(=O)O | 41800

a: CCc1cc(COc2ccccc2Cn2c(CN3CCCC3)nc3cc(Br)ccc32)ccc1OCC(=O)O
b: CCc1cc(COc2ccccc2Cn2c(CCCN3CCCC3)nc3cc(Br)ccc32)ccc1OCC(=O)O
Hey, between a and b which has a smaller measured EC50? Lab note: record the label of whichever item you select. a
